This collection of values is drawn from patent US11149031B2.

This section presents compounds with their documented % Degradation at 3 μM values.
# assay system: ERα in MCF7 cells (Homo sapiens (Human))
# Sequence (P03372 whole entry): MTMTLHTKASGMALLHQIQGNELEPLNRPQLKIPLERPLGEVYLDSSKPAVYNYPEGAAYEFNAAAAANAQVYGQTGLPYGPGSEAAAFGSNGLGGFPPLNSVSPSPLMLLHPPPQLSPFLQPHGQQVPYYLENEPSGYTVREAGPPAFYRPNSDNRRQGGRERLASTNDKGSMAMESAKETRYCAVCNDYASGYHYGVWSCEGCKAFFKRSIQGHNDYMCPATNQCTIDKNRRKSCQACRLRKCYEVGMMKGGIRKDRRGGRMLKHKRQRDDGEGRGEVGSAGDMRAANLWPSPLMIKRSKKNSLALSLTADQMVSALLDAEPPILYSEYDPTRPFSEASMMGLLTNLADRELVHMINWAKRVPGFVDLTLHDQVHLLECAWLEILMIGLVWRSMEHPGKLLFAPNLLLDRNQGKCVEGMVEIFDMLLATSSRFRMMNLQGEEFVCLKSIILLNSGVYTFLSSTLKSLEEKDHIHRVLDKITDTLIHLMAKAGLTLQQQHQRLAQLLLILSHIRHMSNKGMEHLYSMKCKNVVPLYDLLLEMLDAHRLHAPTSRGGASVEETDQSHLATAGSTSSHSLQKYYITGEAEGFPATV
# assay procedure: Test C: estrogen receptor degradation activity, ERα in cell western assay in MCF7 cells
# Type: cell-based
# protocol conditions: at 3 μM, 4 hours, relative to fulvestrant

smiles data	assay system	% Degradation at 3 μM
Cc1cc(C2=C(c3ccc(O[C@H]4CCN(CCCF)C4)cc3)c3ccc(O)cc3OCC2)ccc1Cl	ERα in MCF7 cells (Homo sapiens (Human))	89%
Cc1c(Cl)cccc1C1=C(c2ccc(O[C@H]3CCN(CCCF)C3)cc2)c2cc(O)ccc2SCC1	ERα in MCF7 cells (Homo sapiens (Human))	82%
Cc1ccc(C2=C(c3ccc(O[C@H]4CCN(CCCF)C4)cc3)c3ccc(C(=O)O)cc3SCC2)c(F)c1	ERα in MCF7 cells (Homo sapiens (Human))	89%
Oc1ccc2c(c1)OCCC(c1ccc3[nH]ccc3c1)=C2c1ccc(O[C@H]2CCN(CCCF)C2)cc1	ERα in MCF7 cells (Homo sapiens (Human))	87%
Oc1ccc2c(c1)CCCC(c1ccc(SC(F)(F)F)cc1)=C2c1ccc(N[C@H]2CCN(CCCF)C2)cc1	ERα in MCF7 cells (Homo sapiens (Human))	91%
